Assay: Pharmacokinetics after iv and oral administration, P‐S difference method, Mdr1a/1b(−/−) mice
Type: in vivo
Conditions: male, Mdr1a/1b(−/−) (FVB background), mouse, plasma; Mdr1a/1b(−/−) mice; iv 1 mg/kg
Where a name gives a salt, the structure may show the parent alone.
endpointName: half-life

>>> result("O=C1CN(/N=C/c2ccc([N+](=O)[O-])o2)C(=O)N1")
"1.17 h"
>>> result("CC[C@@]1(O)C(=O)OCc2c1cc1n(c2=O)Cc2cc3c(CN(C)C)c(O)ccc3nc2-1 [topotecan, Topotecan HCl]")
"1.08 h"
>>> result("O=C(O)c1cc(/N=N/c2ccc(S(=O)(=O)Nc3ccccn3)cc2)ccc1O")
"1.63 h"

Data origin, for the record: paper PMC6968775
